Test system: biotinyl-Ile-oxazolone
Test: self-aminoacylation, catalytic enhancement (BIO) (fold over background); higher = more active; k-Seq, kA / k0A0; sequences stand for … in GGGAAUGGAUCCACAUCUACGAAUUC…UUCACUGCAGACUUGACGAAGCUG
Fewer inactive variants are shown than the library holds.
Response key: condition met means self-aminoacylation >= 3; condition not met means self-aminoacylation < 3.

AUUCACCUAUGUCACCGGGUG [Fam2.2 aminoacylation ribozyme variant]
condition not met

hey, is self-aminoacylation for this one >= 3? AAUACCCUGAUCAUCGAGUGA [Fam2.1 aminoacylation ribozyme variant]
condition not met

====

Reported self-aminoacylation values for a set of sequences
System: biotinyl-Val-oxazolone
Assay: self-aminoacylation, catalytic enhancement (BVO) (fold over background); higher = more active; k-Seq, kA / k0A0; sequences stand for … in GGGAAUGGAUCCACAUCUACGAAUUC…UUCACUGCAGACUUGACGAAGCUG
Fewer inactive variants are shown than the library holds.
No unit in the answer, only the number.

Consider the worked cases shown below.
AAGUACGCUAAUAGUCGCAAG [Fam3.1 aminoacylation ribozyme variant]
1.8
AUGAACCUGGUCAUCGAGUGA [Fam2.1 aminoacylation ribozyme variant]
3.17
AAGUUUUAUAAUAGUCGCAAG [Fam3.1 aminoacylation ribozyme variant]
1.64
AUUACCCGGGUCAUUGAGUGA [Fam2.1 aminoacylation ribozyme variant]
4.83
AUUCCCCUAAGUCAUCGGGUG [Fam2.2 aminoacylation ribozyme variant]
37.9

self-aminoacylation measured on AUUACCCUGGUCAACGAGAGA [Fam2.1 aminoacylation ribozyme variant] = 0.904

Lab note: ACUACCCUGGUCGUCGAGUGA [Fam2.1 aminoacylation ribozyme variant] gave self-aminoacylation of 1.19

CUUACCCUGGUCAACGAGUGA [Fam2.1 aminoacylation ribozyme variant] has a reported self-aminoacylation of 3.29

Record CCACACUUCAGGUAAUCGGUC [Fam1B.1 aminoacylation ribozyme variant] . Reported self-aminoacylation: 1.07

====

Let's look at some sequences and their measured self-aminoacylation.
Tested on: biotinyl-Phe-oxazolone
Assay: self-aminoacylation, catalytic enhancement (BFO) (fold over background); higher = more active; k-Seq, kA / k0A0; sequences stand for … in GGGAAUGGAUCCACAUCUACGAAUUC…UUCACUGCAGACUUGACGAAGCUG
This sample holds only a part of the variants without activity.
Just the number, please, no unit after it.

AUUCACCUGCGUCAUCGGGUG [Fam2.2 aminoacylation ribozyme variant]
49.4
AUUACCCUAGUCACCGAGUGA [Fam2.1 aminoacylation ribozyme variant]
23.1
AAGCCUGCUAAUAGUCGCAAG [Fam3.1 aminoacylation ribozyme variant]
37.3
AUUCACCUAGGACGUCGGGUG [Fam2.2 aminoacylation ribozyme variant]
9.18
AUUCACCUAGGUCAUCUGUUG [Fam2.2 aminoacylation ribozyme variant]
0.429
CCACACUUCAAGCAAGCGGUA [Fam1B.1 aminoacylation ribozyme variant]
0.741
CCAAGCUUCAAGCAAUCGGUC [Fam1B.1 aminoacylation ribozyme variant]
86.5
AUUACCCUGGUCAACGAGAGA [Fam2.1 aminoacylation ribozyme variant]
0.544

Next sequence, self-aminoacylation to be filled in.
Lab note: measured self-aminoacylation of ACUACCCUGGUCAUUGAGUGA [Fam2.1 aminoacylation ribozyme variant] was 34
